# Tested Target: Brd2(BD1) (Homo sapiens)
# Construct: GST tagged bromodomain proteins were purchased from BPS Bioscience; purchased BPS Bioscience
# Sequence (P25440 74-180 limits assumed): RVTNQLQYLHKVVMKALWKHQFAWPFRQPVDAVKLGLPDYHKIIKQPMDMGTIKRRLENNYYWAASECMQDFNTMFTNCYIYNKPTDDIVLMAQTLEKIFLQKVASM
# Protocol Description: HTRF BET selectivity profile, Brd2(BD1)
# Format: binding
# Condition Context: selectivity Brd2(BD1) vs Brd2(BD2), HTRF IC50
Readout Kind: Ratio 2-1 vs 2-2

Compound: CCn1cnc2c1c(=O)[nH]c(=O)n2Cc1ccc(CNS(=O)(=O)c2ccc(OC3CCOCC3)c(F)c2)cc1 [Compound 43c]
Ratio 2-1 vs 2-2: 7
--
Compound: Cc1noc(C)c1CCNC(=O)C1CCC(CNS(=O)(=O)c2ccc3c(c2)CCCC(=O)N3)CC1 (stereo not shown) [Compound 9a]
Ratio 2-1 vs 2-2: 3
--
Compound: CCn1cnc2c1c(=O)[nH]c(=O)n2Cc1ccc(CNS(=O)(=O)c2ccc(OCc3ccccc3)cc2)cc1 [Compound 31a]
Ratio 2-1 vs 2-2: 9
--
Compound: CCn1cnc2c1c(=O)[nH]c(=O)n2Cc1ccc(CNS(=O)(=O)c2ccc3c(c2)CCCC(=O)N3)cc1 [Compound 27c]
Ratio 2-1 vs 2-2: 5

I: CCn1cnc2c1c(=O)[nH]c(=O)n2Cc1ccc(CNS(=O)(=O)c2ccc(C(=O)N3CCOCC3)cc2)cc1 [Compound 44b]
II: CCn1cnc2c1c(=O)[nH]c(=O)n2Cc1ccc(CNS(=O)(=O)c2ccc(N3CCOCC3)cc2)cc1 [Compound 45a]
III: CCn1cnc2c1c(=O)[nH]c(=O)n2Cc1ccc(CNS(=O)(=O)c2ccc3c(c2)CCCC(=O)N3)c2ccccc12 [Compound 31c]
Query: Number of compounds to sort: 3. Sort criterion: Ratio 2-1 vs 2-2, ascending. Return the labels ranked in the requested order, please.
Result: III, II, I
